target under test: human NK3 receptor (Homo sapiens, UniProt P29371)
Sequence (P29371 1-465): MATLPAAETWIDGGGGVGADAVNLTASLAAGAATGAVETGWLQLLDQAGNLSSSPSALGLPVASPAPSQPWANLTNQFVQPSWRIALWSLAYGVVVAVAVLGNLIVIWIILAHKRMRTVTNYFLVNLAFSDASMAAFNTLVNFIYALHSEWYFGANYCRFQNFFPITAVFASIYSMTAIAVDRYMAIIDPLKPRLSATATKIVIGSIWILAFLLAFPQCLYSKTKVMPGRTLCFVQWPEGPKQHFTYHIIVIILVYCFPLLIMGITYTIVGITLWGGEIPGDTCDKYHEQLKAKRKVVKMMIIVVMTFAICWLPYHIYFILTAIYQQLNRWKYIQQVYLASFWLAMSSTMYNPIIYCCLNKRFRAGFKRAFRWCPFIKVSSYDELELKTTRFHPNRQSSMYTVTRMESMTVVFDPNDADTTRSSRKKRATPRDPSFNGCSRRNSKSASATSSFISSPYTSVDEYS
assay text: [3H]SR142801 competition binding assay
test conditions: hNK3 receptor binding, [3H]SR142801, membranes from HEK293 cells transiently expressing recombinant human NK3 receptor
pKi: −log10 of the molar value.
property label: pKi

CN(Cc1ccc(Cl)cc1)[C@H]1CN(C(=O)N2CCN(S(C)(=O)=O)CC2)C[C@@H]1c1ccc(Cl)cc1 (racemic): 7.04
CN(Cc1ccc(C(F)(F)F)c(F)c1)[C@H]1CN(C(=O)N2CCOCC2)C[C@@H]1c1ccc(Cl)c(Cl)c1 (racemic): 7.15

[P] CN(Cc1ccc(C(F)(F)F)c(F)c1)[C@H]1CN(C(=O)CN2CCOCC2)C[C@@H]1c1ccc(Cl)c(Cl)c1 (racemic)
[Q] CN(Cc1ccc(C(F)(F)F)c(F)c1)[C@H]1CN(C(=O)N2CCN(c3ncccn3)CC2)C[C@@H]1c1ccc(Cl)c(Cl)c1 (racemic)
[R] CC1CN(CC(=O)N2C[C@H](c3ccc(Cl)c(Cl)c3)[C@@H](N(C)Cc3ccc(C(F)(F)F)c(F)c3)C2)CC(C)N1 (mixture of isomers)
[S] C[C@@H]1CN(C(=O)N2C[C@H](c3ccc(Cl)c(Cl)c3)[C@@H](N(C)Cc3ccc(C(F)(F)F)c(F)c3)C2)CCN1S(C)(=O)=O (mixture of isomers)
Query :: # rank_down: sort by pKi, max first Please express your ranking as an ordered list of the labels.
Result :: S, Q, R, P
(S: 8.44, Q: 8.07, R: 7.60, P: 7.34)
